Experiment: growth inhibition of DIPG glioma cells, dose response, cell-based, JHH-DIPG-1, MIPE4.0, CellTiter-Glo, qHTS (AID 1347062);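 for AC50: cells exposed to compound for two days before readout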
Details: JHH-DIPG-1 viability, CellTiter-Glo ATP luminescence
Records with an inconclusive call do not appear. Activity calls are given as the source filed them. No cut-off is given here; in the data, nearly all actives have AC50 up to about 27 µM.
REPORTED METRIC: AC50

The following compounds have reported results that may help.
# COMPOUND, AC50
data = [
    ("Cc1ccccc1-n1c(Cn2cnc3c(N)ncnc32)nc2cccc(C)c2c1=O", "1320 nM (active)"),
    ("O=P1(NCCCl)OCCCN1CCCl (configuration not stated)", "inactive"),
    ("CC1=C(CC/C(C)=C/CCC2=CCC(C3=CC(=O)OC3O)OC2O)C(C)(C)CCC1 (configuration not stated)", "inactive"),
    ("COc1ccc2c(c1OC)CN1CCc3cc4c(cc3C1C2)OCO4 (configuration not stated)", "14800 nM (active)"),
    ("CN(C)CCc1ccc(O)cc1", "inactive"),
    ("CC[C@@H]1[C@@H](C)O[C@@](O)([C@@H](C)[C@H](O)[C@H](C)[C@H]2OC(=O)/C=C/C=C/[C@H](C)[C@@H]([C@@H](C)[C@@H](O)[C@H](C)[C@@]3(O)C[C@@H](O[C@H]4C[C@H](O)[C@H](O)[C@H](C)O4)[C@H](CC)[C@@H](C)O3)OC(=O)/C=C/C=C/[C@@H]2C)C[C@H]1O[C@H]1C[C@H](O)[C@H](O)[C@H](C)O1", "590 nM (active)"),
]

// moving on: another record for AC50
Data request: Give reported AC50 value for C/C(=C\c1csc(C)n1)[C@@H]1C[C@@H]2O[C@]2(C)CCC[C@H](C)[C@H](O)[C@@H](C)C(=O)C(C)(C)[C@@H](O)CC(=O)O1
Data returned: inactive

----------
Assay: UWB1.289_BRCA1 ovarian cancer growth, cell-based, BGB or cisplatin combinations (AID 1671459)
Conditions: UWB1.289 BRCA1 ovarian carcinoma, drug combinations, BGB combination, concentration series, at 5 µM, stronger effect = higher value
Can you tell me inhibition for the items I'm about to list?
State just the number; it will be interpreted in %.

Data request: Answer with reported inhibition of Cc1c2ccncc2c(C)c2c1[nH]c1ccccc12
Data returned: 104

Data request: Provide measured inhibition value, entry: Cn1c(COP(=O)(NCCBr)NCCBr)cnc1[N+](=O)[O-]
Data returned: -3.84

Data request: Assign inhibition to the following record: NC(Cc1ccc(N(CCCl)CCCl)cc1)C(=O)O (stereo unspecified)
Data returned: 31.5

Data request: Consider the molecule O=P(O)(NCCCl)NCCCl . State its measured inhibition.
Data returned: -1.33

Data request: Please report the measured inhibition for O=C(O)CCCc1ccc(N(CCCl)CCCl)cc1
Data returned: -9.82

Data request: Please report the measured inhibition for CC1(C)C(C(=O)Nc2ccc(S(=O)(=O)c3ccc(NC(=O)C4C(C)(C)C4(C)C)cc3)cc2)C1(C)C
Data returned: 2.97

----------
Assay: CellTiter-Glo luminescent readout of SW480 viability loss, NPC library primary (AID 1117343)
Settings: CellTiter-Glo luminescence; at 20 µM (top of the series)
REPORTED METRIC: viability decrease (inhibition) (%)
Entry rule: numbers only, all in %.

Data request: Specify reported viability decrease (inhibition) for the molecule shown: C=C1CC[C@@]2(O)[C@H]3Cc4ccc(O)c5c4[C@@]2(CCN3CC2CC2)[C@H]1O5
Data returned: 7.8

Data request: For the molecule O=C(NC(=O)c1c(F)cccc1F)Nc1cc(Cl)c(OC(F)(F)C(F)C(F)(F)F)cc1Cl (stereo not given) , give its measured viability decrease (inhibition) value.
Data returned: 19.8

Data request: Look up viability decrease (inhibition) of C=CCN1C[C@H](C)N([C@H](c2ccc(C(=O)N(CC)CC)cc2)c2cccc(OC)c2)C[C@H]1C and report it.
Data returned: 6

Data request: Fill in viability decrease (inhibition) for record CC(=O)C1CCOC1=O (stereo not given)
Data returned: 1.5

Data request: Retrieve viability decrease (inhibition) measured for O=C(O)c1nn(Cc2ccc(Cl)cc2Cl)c2ccccc12 and print it.
Data returned: 24.5

----------
Assay: liver-stage malaria parasite growth inhibition, primary screen, cell-based, HepG2, luciferase luminescence, HepG2 viability (AID 624349);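 note: 100% = mean of DMSO negative control wells on the same plate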
Conditions: P. berghei liver stage in HepG2, luciferase luminescence, concentration not given here; measured here: HepG2 viability without parasites
Strictly below 70% in viability: Yes. Otherwise: No.

Data request: Would you kindly verify if viability of COc1cc2c(cc1O)[C@@H]1Cc3ccc(OC)c(O)c3CN1CC2 is strictly less than 70%?
Data returned: No

Data request: # TODO verify viability < 70% strictly for this compound: CN1CC[C@@]2(C)c3cc(O)ccc3N(C)[C@H]12
Data returned: No

Data request: # check: viability < 70% for CCCCCCCCCOc1ccc2[nH]cc(CCN)c2c1
Data returned: Yes

Data request: Hello, I'm reviewing records and need to know if viability of C[N+]1(C)C2CC[C@H]1CC(OC(=O)C(CO)c1ccccc1)C2 (stereo partly specified) is below 70%. Could you check?
Data returned: No

Data request: is_below(viability, 70%) for C=C1CC2C(CC[C@]3(C)C(=O)CCC23)[C@@]2(C)C=CC(=O)C=C12 (stereo partly specified) ?
Data returned: No

Data request: viability under 70%? Item: CC12NC(Cc3ccccc31)c1ccccc12 (stereo unspecified)
Data returned: No

----------
Assay: inhibitors of Cryptococcus chitosan production, flow cytometry, Cibacron Brilliant Red staining (AID 1347148);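 note: compound exposure lasted three days at 37 degrees C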
Conditions: Cryptococcus neoformans chitosan, stronger effect = lower value; at 10 µM unless noted
The source made the active and inactive calls. The rule behind the calls is not given here.
For each entry below, report its fold fluorescence value.

Data request: Check the records and state fold fluorescence for O[C@@H]1[C@@H](O)[C@H](O)CN2CC[C@@H](O)[C@@H]12
Data returned: 5.17 [at 264.3 µM] (inactive)

Data request: Annotate the molecule C=C1C(=O)O[C@H]2C[C@H](C)[C@H]3C=CC(=O)[C@]3(C)[C@H](O)[C@@H]12 with its measured fold fluorescence.
Data returned: 9.09 [at 190.6 µM] (inactive)

Data request: Dear colleague, please send me the reported fold fluorescence for CC(C)(C)c1cc(C=C(C#N)C#N)cc(C(C)(C)C)c1O when you can.
Data returned: 9.17 [at 177.1 µM] (inactive)

Data request: Provide measured fold fluorescence value, entry: COC(C/C=C/C=C/CC/C=C\CC(C)/C=C\C(=C/C(=O)O)CC(=O)O)/C(C)=C\C=C(/C)C(=O)O (centres undefined)
Data returned: 5.28 [at 10.3 µM] (inactive)

Data request: Name the recorded fold fluorescence of the item C[C@@]1(CO)[C@H]2CC[C@@H]3C[C@H]4C[C@@]3(CC[C@@]4(O)CO)[C@]2(C)CC[C@@H]1O in your answer.
Data returned: 13 [at 147.7 µM] (inactive)

Data request: Give recorded fold fluorescence. C=C1[C@@H](C)[C@H]2[C@H](Cc3ccccc3)NC(=O)[C@]23[C@H](OC(C)=O)/C=C/[C@](C)(O)C(=O)[C@@H](C)C/C=C/[C@H]3[C@@H]1O
Data returned: 11.8 [at 98.5 µM] (inactive)

Data request: State its fold fluorescence: C[C@@H]1C[C@@H]([C@H](O)CC2CC(=O)NC(=O)C2)C(=O)[C@@H](C)C1
Data returned: 9.32 [at 177.7 µM] (inactive)

Data request: Give a short answer stating reported fold fluorescence for N#CC(C#N)=Cc1ccc([N+](=O)[O-])c(O)c1 .
Data returned: 5.5 [at 232.4 µM] (inactive)

Data request: For the molecule Clc1ccc(C2CC3CCC2N3)cn1 (centres undefined) , report fold fluorescence.
Data returned: 4.32 [at 239.6 µM] (inactive)

----------
Test: viability rescue of complex I mutant cybrids, primary screen, cell-based, galactose medium, ATP luminescence (AID 1645843);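 note: positive z means more ATP and so rescue of galactose-driven cybrid death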
Conditions: complex I mutant cybrid cells, 72 h, stronger effect = higher value
z-score vs 0.06: at or above is y, below is n.

Data request: z-score >= 0.06 for CC(C)[C@]12OC1C1O[C@]13[C@]1(OC1CC1C4=C(CC[C@@]13C)C(=O)OC4)C2O (stereo partly specified) ?
Data returned: n

Data request: Say whether COc1ccc2c(c1)[C@]13CCCCC1C(C2)N(C)CC3 (stereo partly specified) shows z-score of 0.06 or more.
Data returned: n

Data request: Assess whether reported z-score for C#C[C@]1(O)CC[C@H]2[C@@H]3CCC4=CC(=O)CC[C@]4(C)[C@H]3CC[C@@]21C sits at 0.06 or higher.
Data returned: y

Data request: Given the entry c1cncc(C2CCCN2)c1 (stereo unspecified) , answer whether its z-score meets or surpasses 0.06.
Data returned: y

Data request: Could you please find out whether Cc1cccc(C)c1NC(=O)CN1CCCC1=O has z-score that meets 0.06 or exceeds it?
Data returned: y

Data request: Answer whether z-score of NC(N)=NOCC[C@H](N)C(=O)O is greater than or equal to 0.06.
Data returned: y
